Entry source: PubChem BioAssay AID977630

Reported AC50 values follow for various compounds
Test system: E. coli humanized H38 RFP strain growth, mixed culture, 24 h
experimental.protocol: E. coli growth inhibition, wild-type GFP versus H38 humanized RFP strain – H38 mutant RFP vs wild-type GFP, cherry-pick, dose response (AID 977630);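 note: wild-type GFP strain mixed equally with humanized-ribosome H38 mutant expressing RFP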
Results filed as inconclusive are left out.

{"compound": "COc1cc(OC)cc(C(=O)N[C@H](C(=O)OCC(=O)Nc2ccc(F)c(F)c2F)C(C)C)c1", "test.system": "E. coli humanized H38 RFP strain growth, mixed culture, 24 h", "AC50": "> 100 µM"}
{"compound": "Cc1cc(SCC(=O)OCC(=O)NCC2CCCO2)c(C)cc1Br (stereo not given)", "test.system": "E. coli humanized H38 RFP strain growth, mixed culture, 24 h", "AC50": "> 100 µM"}
{"compound": "CN(C(=O)COc1ccccc1C(=O)NCCOc1ccccc1)c1ccccc1", "test.system": "E. coli humanized H38 RFP strain growth, mixed culture, 24 h", "AC50": "44.2 µM"}
{"compound": "COc1cc(NC(=O)c2ccc(Cl)cc2)c(OC)cc1NC(=O)CN1CCCCC1", "test.system": "E. coli humanized H38 RFP strain growth, mixed culture, 24 h", "AC50": "> 100 µM"}

*Q* Look up AC50 for this compound: COc1ccc(NS(=O)(=O)c2ccc(Cl)c(NC(=O)c3ccccc3F)c2)cc1
*A* > 100 µM
